target: LDHB (Homo sapiens, UniProt P07195); construct: purchased R&D Systems; experiment: Substrate-competition assay (varying NADH or pyruvate); assay type: biochemical; conditions: NADH 100 μM; 100 μM pyruvate
Sequence (P07195 whole entry): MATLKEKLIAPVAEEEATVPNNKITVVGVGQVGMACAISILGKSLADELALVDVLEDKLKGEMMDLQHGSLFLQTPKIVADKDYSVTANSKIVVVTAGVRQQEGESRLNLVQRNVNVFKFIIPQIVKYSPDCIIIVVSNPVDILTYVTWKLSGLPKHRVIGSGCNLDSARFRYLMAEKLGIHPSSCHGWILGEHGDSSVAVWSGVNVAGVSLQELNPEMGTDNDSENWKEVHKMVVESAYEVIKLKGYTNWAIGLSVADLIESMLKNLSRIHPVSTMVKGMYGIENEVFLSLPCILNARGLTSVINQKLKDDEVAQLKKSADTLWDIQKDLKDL
test.readout: IC50 (nM)
Numbers only, in nM.

Write down IC50 measured for item c1ccc(CNCCc2c(CNC3CCCCCC3)[nH]c3ccccc23)cc1
223

* * *

target: LDHB (Homo sapiens); construct: purchased R&D Systems; assay: LDHB enzyme assay by RapidFire-MS (NADH to NAD+ conversion); type: biochemical; conditions: RF-MS, four-parameter fit; read-out: EC50 for LDHB
test.readout: EC50 (nM)
Numbers only, in nM.

# return recorded EC50 for input c1ccc(CNCCc2c(CNC3CCCCCC3)[nH]c3ccccc23)cc1 [AXKO-0046]
42

* * *

molecular target: LDHB (Homo sapiens, UniProt P07195); construct: purchased R&D Systems; test: Substrate-competition assay (varying NADH or pyruvate); format: biochemical; settings: NADH 30 μM; 100 μM pyruvate
test.readout: IC50
Provide the measurement as a number trailed by its unit.

Item c1ccc(CNCCc2c(CNC3CCCCCC3)[nH]c3ccccc23)cc1 [AXKO-0046] : provide IC50
702 nM

* * *

molecular target: LDHB (Homo sapiens, UniProt P07195); construct: purchased R&D Systems; assay: Substrate-competition assay (varying NADH or pyruvate); format: biochemical; conditions: Pyruvate 200 μM; 100 μM NADH
test.readout: IC50
Give the value; after it, write the unit.

Supply IC50 value. Item: c1ccc(CNCCc2c(CNC3CCCCCC3)[nH]c3ccccc23)cc1 [AXKO-0046]
96.3 nM

* * *

Target: LDHB (Homo sapiens)
Construct: purchased R&D Systems
Assay: Substrate-competition assay (varying NADH or pyruvate)
Format: biochemical
Details: NADH 200 μM; 100 μM pyruvate
Description: To elucidate the underlying inhibitory mechanism, substrate competition assays were performed. LDHB inhibitory activity for AXKO-0046 was assessed at different concentrations of the substrate. Moreover, the Km and Vmax values for LDHB were determined in the presence AXKO-0046. As the AXKO-0046 concentration increased in the reaction, both Vmax and Km decreased proportionally (Supplementary Fig. 3 and Table 1). […]
test.readout: IC50 (nM)
Numbers only, in nM.

Annotate the molecule c1ccc(CNCCc2c(CNC3CCCCCC3)[nH]c3ccccc23)cc1 with its measured IC50.
94.2

* * *

biological target: LDHB (Homo sapiens, UniProt P07195); construct: purchased R&D Systems; assay: LDHB enzyme assay by RapidFire-MS (NADH to NAD+ conversion); format: biochemical; details: RF-MS; read-out: EC50 (μM), LDHB inhibitory activity of AXKO-0046 derivatives
test.readout: EC50 (µM)
Answers are plain numbers, in µM.

Worked examples, 2 compounds total:
Return reported EC50. Input compound: CN(CCc1c(CNC2CCCCCC2)[nH]c2ccccc12)Cc1ccccc1
0.25

Give EC50 for the following compound: CN(Cc1[nH]c2ccccc2c1CCNCc1ccccc1)C1CCCCCC1
7.4

Now for another entry.
Give me measured EC50, please, for this compound: CN(CCc1c(CN(C)C2CCCCCC2)[nH]c2ccccc12)Cc1ccccc1
8.3

* * *

biological target: LDHB (Homo sapiens, UniProt P07195); construct: purchased R&D Systems; test: Substrate-competition assay (varying NADH or pyruvate); format: biochemical; details: Pyruvate 50 μM; 100 μM NADH
test.readout: IC50 (nM)
Answers are plain numbers, in nM.

State, for LDHB (Homo sapiens, UniProt P07195), measured IC50 of the molecule listed here: c1ccc(CNCCc2c(CNC3CCCCCC3)[nH]c3ccccc23)cc1
114
